TARGET SYSTEM: angiotensin II-induced vasoconstriction (Oryctolagus cuniculus, UniProt P34976)
ASSAY SUMMARY: Inhibition of Angiotensin II Dose-Response in Rabbit Thoracic Aorta
Parameters: from tissue; host or cells: thoracic aorta rings of New Zealand white rabbits; species or system New Zealand white rabbits
CONDITIONS USED: read-out: % Inh @ 10^-5 M
QUANTITY MEASURED: inhibition at 10 µM (%)

Some molecules with known inhibition at 10 µM results, for comparison:
- CCOC(=O)C=C1N(Cc2ccc(-c3ccccc3-c3nnn[nH]3)cc2)C(=O)CC12CCCC2 [af, Hydrate]: 100
- CCOC(=O)C=C1N(Cc2ccc(-c3ccccc3-c3nnn[nH]3)cc2)C(=O)CC12CCCCCC2 [ad, Hydrate]: 100
- CCOC(=O)C=C1C2C3CCC(C3)C2C(=O)N1Cc1ccc(-c2ccccc2-c2nnn[nH]2)cc1 (centres unmarked): 100
- CCOC(=O)C=C1CC(C)(CC)CC(=O)N1Cc1ccc(-c2ccccc2-c2nnn[nH]2)cc1 (centres unmarked) [ae, Hydrate]: 100
- CCOC(=O)C=C1C2C3C=CC(CC3)C2C(=O)N1Cc1ccc(-c2ccccc2-c2nnn[nH]2)cc1 (centres unmarked): 99
- CCOC(=O)C=C1CC2(CCCC2)CC(=O)N1Cc1ccc(-c2ccccc2-c2nnn[nH]2)cc1: 100

(I) CCOC(=O)C=C1N(Cc2ccc(-c3ccccc3-c3nnn[nH]3)cc2)C(=O)CC12CCCCC2 [ac, Hydrate]
(II) CCOC(=O)C=C1C2C3C=CC(C3)C2C(=O)N1Cc1ccc(-c2ccccc2C(=O)OC)cc1 (centres unmarked)
Which of the two items, I and II , has the greater recorded inhibition at 10 µM? Selection: enter the item's label. I
(I: 100%, II: 0%)

----------
TARGET SYSTEM: angiotensin II-induced vasoconstriction (Oryctolagus cuniculus, UniProt P34976)
ASSAY SUMMARY: Angiotensin II Antagonist Dose-Response in Rabbit Thoracic Aorta (Schild plot)
Parameters: from tissue; host or cells: thoracic aorta rings of New Zealand white rabbits; species or system New Zealand white rabbits
CONDITIONS USED: read-out: pA2 (converted)
Text: Angiotensin II Antagonist Dose-Response in Rabbit Thoracic Aorta Purpose: […] [Chiu, […]., Price, W. A., Wong, […]., Duncia, […]., Yoo, S. E., Johnson, A. L., and […].: Nonpeptide angiotensin II receptor antagonists. VII. Cellular and Biochemical pharmacology of […], an orally active antihypertensive agent. […] Analysis: Angiotensin II vasoconstrictor tension in grams is expressed as a percent of maximal contraction for the before and after test compound angiotensin II dose-responses. […]
QUANTITY MEASURED: Kb (nM)

• CCOC(=O)C=C1CC2(CCCC2)CC(=O)N1Cc1ccc(-c2ccccc2-c2nnn[nH]2)cc1 = 14.1

(A) CCOC(=O)C=C1C2C3C=CC(CC3)C2C(=O)N1Cc1ccc(-c2ccccc2-c2nnn[nH]2)cc1 (stereo not drawn)
(B) CCOC(=O)C=C1C2C3CCC(C3)C2C(=O)N1Cc1ccc(-c2ccccc2-c2nnn[nH]2)cc1 (stereo not drawn)
(C) CCOC(=O)C=C1N(Cc2ccc(-c3ccccc3-c3nnn[nH]3)cc2)C(=O)CC12CCCCCC2 [ad, Hydrate]
Rank entries according to their Kb, from the largest number down. Reply format: the labels, ordered as requested. A, C, B

(1) CCOC(=O)C=C1CC(C)(CC)CC(=O)N1Cc1ccc(-c2ccccc2-c2nnn[nH]2)cc1 (stereo not drawn) [ae, Hydrate]
(2) CCOC(=O)C=C1C2C3C=CC(C3)C2C(=O)N1Cc1ccc(-c2ccccc2-c2nnn[nH]2)cc1 (stereo not drawn)
Field: lower Kb | Options: 1 / 2 // output: label of the selected item 1
(1: 1.07 nM, 2: 4.47 nM)

----------
TARGET SYSTEM: angiotensin II-induced vasoconstriction (Oryctolagus cuniculus)
Sequence (P34976 1-359): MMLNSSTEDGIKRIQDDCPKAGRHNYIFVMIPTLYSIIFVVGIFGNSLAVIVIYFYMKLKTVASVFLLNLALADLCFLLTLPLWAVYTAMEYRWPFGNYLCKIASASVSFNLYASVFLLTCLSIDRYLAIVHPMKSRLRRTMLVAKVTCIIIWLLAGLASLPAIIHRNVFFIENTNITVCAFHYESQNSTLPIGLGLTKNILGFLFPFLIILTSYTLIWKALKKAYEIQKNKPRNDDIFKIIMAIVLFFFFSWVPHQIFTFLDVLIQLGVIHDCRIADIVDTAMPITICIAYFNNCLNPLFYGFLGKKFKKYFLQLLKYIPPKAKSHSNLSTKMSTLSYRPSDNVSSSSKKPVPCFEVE
ASSAY SUMMARY: Inhibition of Angiotensin II Dose-Response in Rabbit Thoracic Aorta
Set-up: from tissue; host or cells: thoracic aorta rings of New Zealand white rabbits; species or system New Zealand white rabbits
CONDITIONS USED: read-out: % Inh @ 10^-5 M
QUANTITY MEASURED: inhibition at 10 µM (%)

Below, each entry is followed by its recorded inhibition at 10 µM result.
* CCOC(=O)C=C1C2C3C=CC(C3)C2C(=O)N1Cc1ccc(-c2ccccc2-c2nnn[nH]2)cc1 (stereo not drawn) | 100
* CCOC(=O)C=C1C2C3C=CC(CCC3)C2C(=O)N1Cc1ccc(-c2ccccc2-c2nnn[nH]2)cc1 (stereo not drawn) [ah, Hydrate] | 100
* CCOC(=O)C=C1C2C3CCCC(CC3)C2C(=O)N1Cc1ccc(-c2ccccc2-c2nnn[nH]2)cc1 (stereo not drawn) [ag, Dihydrate] | 100

(A) CCOC(=O)C=C1CC(C)(C)CC(=O)N1Cc1ccc(-c2ccccc2-c2nnn[nH]2)cc1
(B) CCOC(=O)C=C1C2C3CCC(C3)C2C(=O)N1Cc1ccc(-c2ccccc2C(=O)OC)cc1 (stereo not drawn)
(C) CCOC(=O)C=C1C2C3C=CC(CC3)C2C(=O)N1Cc1ccc(-c2ccccc2C#N)cc1 (stereo not drawn)
Endpoint returns the given compounds ordered by ascending inhibition at 10 µM. I'd appreciate it if you listed the labels in the requested order. B, C, A

----------
TARGET SYSTEM: angiotensin II-induced vasoconstriction (Oryctolagus cuniculus)
ASSAY SUMMARY: Angiotensin II Antagonist Dose-Response in Rabbit Thoracic Aorta (Schild plot)
Set-up: from tissue; host or cells: thoracic aorta rings of New Zealand white rabbits; species or system New Zealand white rabbits
CONDITIONS USED: read-out: pA2 (converted)
QUANTITY MEASURED: Kb (nM)

* CCOC(=O)C=C1CC(C)(C)CC(=O)N1Cc1ccc(-c2ccccc2-c2nnn[nH]2)cc1 | 39.8

(I) CCOC(=O)C=C1N(Cc2ccc(-c3ccccc3-c3nnn[nH]3)cc2)C(=O)CC12CCCC2 [af, Hydrate]
(II) CCOC(=O)C=C1C2C3C=CC(CCC3)C2C(=O)N1Cc1ccc(-c2ccccc2-c2nnn[nH]2)cc1 (stereo not drawn) [ah, Hydrate]
Thinking about recorded Kb values, which is higher, I or II ? // respond with label for picked entry II
(II: 14.1 nM, I: 3.63 nM)
